All values here come from paper PMC11062922.

SUBJECT OF TEST: endogenous kinases and other proteins enriched by Kinobeads from mixed cancer cell lysates (Homo sapiens, UniProt Q9BZL6)
Construct: endogenous in cells
Sequence (Q9BZL6 1-878): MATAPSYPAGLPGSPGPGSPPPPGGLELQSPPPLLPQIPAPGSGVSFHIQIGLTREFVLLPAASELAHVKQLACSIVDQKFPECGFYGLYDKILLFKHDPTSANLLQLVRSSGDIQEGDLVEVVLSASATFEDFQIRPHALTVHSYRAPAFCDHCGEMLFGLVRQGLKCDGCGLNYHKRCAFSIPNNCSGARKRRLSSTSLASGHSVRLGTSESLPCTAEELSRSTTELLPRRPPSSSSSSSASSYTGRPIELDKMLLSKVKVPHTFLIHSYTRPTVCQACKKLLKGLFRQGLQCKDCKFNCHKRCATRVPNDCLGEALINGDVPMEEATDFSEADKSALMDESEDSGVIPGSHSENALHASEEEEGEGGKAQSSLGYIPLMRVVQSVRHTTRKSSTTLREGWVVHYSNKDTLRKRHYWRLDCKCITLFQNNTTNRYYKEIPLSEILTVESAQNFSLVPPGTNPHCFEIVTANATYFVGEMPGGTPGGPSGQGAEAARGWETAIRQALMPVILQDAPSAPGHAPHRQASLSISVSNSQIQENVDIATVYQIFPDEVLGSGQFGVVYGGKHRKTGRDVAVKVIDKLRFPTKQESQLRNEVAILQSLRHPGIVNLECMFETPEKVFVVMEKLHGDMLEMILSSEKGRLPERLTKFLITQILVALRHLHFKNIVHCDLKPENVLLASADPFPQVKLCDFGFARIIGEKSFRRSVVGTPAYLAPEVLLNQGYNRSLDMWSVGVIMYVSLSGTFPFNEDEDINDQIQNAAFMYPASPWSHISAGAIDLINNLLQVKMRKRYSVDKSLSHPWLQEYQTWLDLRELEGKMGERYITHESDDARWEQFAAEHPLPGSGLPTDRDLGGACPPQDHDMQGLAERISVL
ASSAY: Kinobeads pulldown, full dose-response (eight doses);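 also: competition with Kinobeads ε after inhibitor preincubation in lysate (5 mg/ml protein) for 45 min at 4 °C, DMSO control, doses 0.3–1,000 nM, label-free LC–MS/MS quantification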
Format: binding
ASSAY CONDITIONS: target PRKD2
METRIC NAME: EC50

Query string: // returns reported EC50 for input Cn1cc(-c2nc(N[C@@H]3CCCC[C@@H]3N)c(F)c3c2C(=O)NC3)cn1 [TAK659]
Result string: 1010 nM

---

SUBJECT OF TEST: AAK1 (Homo sapiens)
Construct: to maximize the representation of endogenous proteins; endogenous in cells
Sequence (Q2M2I8 whole entry): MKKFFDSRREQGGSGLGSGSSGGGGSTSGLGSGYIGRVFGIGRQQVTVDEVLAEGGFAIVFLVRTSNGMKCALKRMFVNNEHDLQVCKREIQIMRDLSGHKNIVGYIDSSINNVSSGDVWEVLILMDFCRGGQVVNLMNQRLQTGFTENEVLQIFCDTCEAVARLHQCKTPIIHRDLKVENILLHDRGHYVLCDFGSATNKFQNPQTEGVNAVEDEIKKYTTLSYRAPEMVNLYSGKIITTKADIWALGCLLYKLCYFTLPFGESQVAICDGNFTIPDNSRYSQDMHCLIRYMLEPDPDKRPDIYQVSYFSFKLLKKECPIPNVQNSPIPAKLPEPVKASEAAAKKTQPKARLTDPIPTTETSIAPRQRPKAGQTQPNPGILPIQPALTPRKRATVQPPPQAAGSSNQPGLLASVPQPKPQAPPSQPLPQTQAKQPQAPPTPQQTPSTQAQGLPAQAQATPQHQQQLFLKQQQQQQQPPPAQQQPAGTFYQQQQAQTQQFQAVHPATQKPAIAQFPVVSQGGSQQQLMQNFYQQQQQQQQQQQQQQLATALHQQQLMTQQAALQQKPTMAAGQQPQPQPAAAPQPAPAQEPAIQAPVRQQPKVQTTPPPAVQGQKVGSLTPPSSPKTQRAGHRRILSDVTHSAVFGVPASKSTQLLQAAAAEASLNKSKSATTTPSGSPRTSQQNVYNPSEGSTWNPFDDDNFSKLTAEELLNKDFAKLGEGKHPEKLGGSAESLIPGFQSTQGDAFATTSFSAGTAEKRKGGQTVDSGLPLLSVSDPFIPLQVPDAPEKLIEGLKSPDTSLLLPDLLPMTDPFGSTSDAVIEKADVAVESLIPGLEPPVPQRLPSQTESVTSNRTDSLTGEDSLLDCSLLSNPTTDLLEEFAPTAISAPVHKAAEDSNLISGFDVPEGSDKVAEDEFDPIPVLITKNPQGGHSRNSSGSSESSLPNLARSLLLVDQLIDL
ASSAY: Kinobeads two-dose competition binding: AAK1;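 also: kinobeads competition pulldown from cell lysate, compound preincubated 45 min at 4 °C, bead-bound protein measured by label-free mass spectrometry against DMSO vehicle control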
ASSAY CONDITIONS: target AAK1
METRIC NAME: CATDS
Please give the numeric answer without any surrounding text.

Recorded results for 3 compounds are shown here.
CCc1cc2c(cc1N1CCC(N3CCOCC3)CC1)C(C)(C)c1[nH]c3cc(C#N)ccc3c1C2=O = 0
Nc1ncnc2[nH]c(-c3ccccc3)nc12 = 0
CCN1CCN(Cc2ccc(Nc3ncc(F)c(-c4cc(F)c5nc(C)n(C(C)C)c5c4)n3)nc2)CC1 = 0.04695

Query string: // returns reported CATDS for input N#CC1(c2ccc(NC(=O)c3cccnc3NCc3ccncc3)cc2)CCCC1
Result string: 0

---

SUBJECT OF TEST: ABL2 (Homo sapiens)
Construct: endogenous in cells
Sequence (P42684 whole entry): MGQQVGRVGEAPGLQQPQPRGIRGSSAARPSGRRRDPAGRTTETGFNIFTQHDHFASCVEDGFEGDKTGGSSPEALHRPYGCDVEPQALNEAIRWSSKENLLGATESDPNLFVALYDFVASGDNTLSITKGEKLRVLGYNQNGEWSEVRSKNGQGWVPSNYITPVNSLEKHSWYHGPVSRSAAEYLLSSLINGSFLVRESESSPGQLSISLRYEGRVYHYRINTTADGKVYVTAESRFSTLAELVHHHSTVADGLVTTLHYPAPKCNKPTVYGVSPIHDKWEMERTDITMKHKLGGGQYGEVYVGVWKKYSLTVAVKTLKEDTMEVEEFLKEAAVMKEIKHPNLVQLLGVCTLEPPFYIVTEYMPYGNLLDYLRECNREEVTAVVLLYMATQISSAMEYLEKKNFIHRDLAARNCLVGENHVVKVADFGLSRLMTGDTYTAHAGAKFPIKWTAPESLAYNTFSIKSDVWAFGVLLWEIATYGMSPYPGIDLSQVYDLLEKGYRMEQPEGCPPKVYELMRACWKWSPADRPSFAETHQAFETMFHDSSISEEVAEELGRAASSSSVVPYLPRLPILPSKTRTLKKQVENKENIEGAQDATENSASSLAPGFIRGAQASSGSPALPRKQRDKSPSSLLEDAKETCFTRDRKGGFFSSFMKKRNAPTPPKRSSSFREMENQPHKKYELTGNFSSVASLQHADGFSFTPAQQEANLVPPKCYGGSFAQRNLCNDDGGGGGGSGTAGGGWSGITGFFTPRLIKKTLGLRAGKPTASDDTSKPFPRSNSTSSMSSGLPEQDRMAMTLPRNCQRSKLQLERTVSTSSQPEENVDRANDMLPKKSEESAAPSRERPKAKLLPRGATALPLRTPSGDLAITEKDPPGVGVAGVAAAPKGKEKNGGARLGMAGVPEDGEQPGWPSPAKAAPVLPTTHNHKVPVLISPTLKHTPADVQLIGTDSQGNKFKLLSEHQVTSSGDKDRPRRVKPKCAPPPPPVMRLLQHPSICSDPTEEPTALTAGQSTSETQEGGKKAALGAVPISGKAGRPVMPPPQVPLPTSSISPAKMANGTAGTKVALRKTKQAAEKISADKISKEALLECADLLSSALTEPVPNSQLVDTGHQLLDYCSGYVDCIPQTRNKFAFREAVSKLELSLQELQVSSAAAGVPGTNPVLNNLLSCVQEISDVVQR
ASSAY: Kinobeads two-dose competition binding: ABL2
ASSAY CONDITIONS: sheet CATDS matrix 2; Gene Name ABL2
Entries and their CATDS values follow.
Please give the numeric answer without any surrounding text.

Recorded results for 5 molecules are shown here.
CNc1nc(-c2ccc3c(N)n[nH]c3c2)cc(N2C[C@@H](C(=O)NC3CCCCC3)CC[C@H]2C)n1 = 0
O=c1[nH]c2cc(Nc3ccc(F)cc3F)ccc2n1CC1CCCCC1 = 0
COc1cc(N2CCN(C(C)C)CC2)ccc1Nc1nc(Nc2cccc3ncccc23)c2cc[nH]c2n1 [GSK1511931A] = 0
CC(C)c1cc(-c2ccc3c(N)n[nH]c3c2)nc(N)n1 [GSK2250882A] = 0
Cc1c(Cn2c3ccccc3n3c(=O)cc(N4CCOCC4)nc23)cccc1C(F)(F)F [GSK2306394A] = 0

Query string: // returns reported CATDS for input NCC1CCC(CNc2nc(NCc3ccccc3OC(F)(F)F)ncc2[N+](=O)[O-])CC1 (centres unmarked) [BIRZ0518XX]
Result string: 0

Query string: Also need CCN1CCN(Cc2ccc(C(=O)Nc3ccc(C)c(Oc4ccc5c(c4)CC(=O)N5)c3)cc2C(F)(F)F)CC1 , thanks.
Result string: 0

Query string: Also need NCC(NC(=O)c1cc(-c2cn[nH]c2)c(-c2ccnc3[nH]ccc23)s1)c1ccccc1 (centres unmarked) [GSK1325775A] , thanks.
Result string: 0
